- TARGET OF ASSAY: hMCHR (MCH receptor) (Homo sapiens)
- Construct: (or internally produced); host or cells: CHO (Chinese hamster ovary) cells, membrane preparation
- Sequence (Q99705 whole entry): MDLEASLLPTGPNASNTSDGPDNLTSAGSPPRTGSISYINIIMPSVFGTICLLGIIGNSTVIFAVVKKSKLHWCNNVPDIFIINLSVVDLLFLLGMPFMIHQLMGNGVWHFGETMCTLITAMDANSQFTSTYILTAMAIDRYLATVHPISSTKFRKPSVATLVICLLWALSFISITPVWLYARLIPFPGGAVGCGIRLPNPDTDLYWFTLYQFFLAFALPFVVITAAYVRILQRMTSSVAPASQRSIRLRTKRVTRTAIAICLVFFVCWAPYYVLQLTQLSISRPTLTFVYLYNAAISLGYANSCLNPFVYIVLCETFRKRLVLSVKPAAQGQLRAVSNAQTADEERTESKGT
- PROCEDURE SUMMARY: MCH Assay PCOP Protocol ([125I]-MCH SPA binding to hMCHR-CHO membranes)
- ASSAY SETUP: [125I]-MCH SPA binding, hMCHR-CHO membranes; Ki class ranges; read-out: Activity (range of Ki)
pKi: −log10 of the molar value.
Property: pKi; scope: individual compounds

Example compounds with recorded pKi:
compound="CC1CCCN(CCC(CNC(=O)c2cc(C(F)(F)F)cc(C(F)(F)F)c2)c2ccc(Cl)c(Cl)c2)C1 (stereo not drawn)" result="5.60 to 6.30"
compound="COc1ccc2c(CCNCCC(CNC(=O)Nc3cc(C(F)(F)F)cc(C(F)(F)F)c3)c3ccc(Cl)c(Cl)c3)c[nH]c2c1 (stereo not drawn)" result="5.60 to 6.30"

Now consider a different compound.
O=C(Cc1ccc(Cl)c(Cl)c1)NCC(CCN1CCC(N2CCCCC2)CC1)c1ccc(Cl)c(Cl)c1 (stereo not drawn) yielded pKi of 5.60 to 6.30
